test system: NCI-H727; experiment: relative viability (nuclei count vs DMSO), 5 days (fraction); higher = more cells survive; details: first compound 0.02 µM
observable: relative viability
Respond numerically, and do not add a unit to the figure.

>  <molecule>
CC(=O)O[C@@]12CO[C@@H]1C[C@H](O)[C@@]1(C)C(=O)[C@H](O)C3=C(C)[C@@H](OC(=O)[C@H](O)[C@@H](NC(=O)OC(C)(C)C)c4ccccc4)C[C@@](O)([C@@H](OC(=O)c4ccccc4)[C@H]21)C3(C)C [Docetaxel] + O=C(c1cc(Cc2n[nH]c(=O)c3ccccc23)ccc1F)N1CCN(C(=O)C2CC2)CC1 [Olaparib] (partner 8 µM)

>  <observed-result>
0.524

$$$$
>  <molecule>
CC(=O)O[C@@]12CO[C@@H]1C[C@H](O)[C@@]1(C)C(=O)[C@H](O)C3=C(C)[C@@H](OC(=O)[C@H](O)[C@@H](NC(=O)OC(C)(C)C)c4ccccc4)C[C@@](O)([C@@H](OC(=O)c4ccccc4)[C@H]21)C3(C)C [Docetaxel] + N=C(N)NC(=N)NCCc1ccccc1 [Phenformin] (partner 250 µM)

>  <observed-result>
0.354

$$$$

Switching to the query record.
GET /value?item= CC(=O)O[C@@]12CO[C@@H]1C[C@H](O)[C@@]1(C)C(=O)[C@H](O)C3=C(C)[C@@H](OC(=O)[C@H](O)[C@@H](NC(=O)OC(C)(C)C)c4ccccc4)C[C@@](O)([C@@H](OC(=O)c4ccccc4)[C@H]21)C3(C)C [Docetaxel] + O=C(CCCCCCC(=O)Nc1ccccc1)NO [Vorinostat] (partner 1 µM) &field=relative viability returns 0.67
